Details: in ethanol, 298.15 K
READOUT LABEL: solubility (mole fraction)
Numbers only.

O=C(O)/C=C/c1ccccc1Cl has a reported solubility (mole fraction) of 0.00614

* * *

Conditions: in n-propanol, 302.95 K
READOUT LABEL: solubility (mole fraction)
One number for each entry.

O=C(O)/C=C/c1ccccc1Cl has a reported solubility (mole fraction) of 0.00723

* * *

Settings: in acetonitrile, 302.55 K
READOUT LABEL: solubility (mole fraction)

O=C(O)/C=C/c1ccccc1Cl has a reported solubility (mole fraction) of 0.00125

* * *

Conditions: in ethyl acetate, 312.35 K
READOUT LABEL: solubility (mole fraction)
Give bare numbers.

O=C(O)/C=C/c1ccccc1Cl has a reported solubility (mole fraction) of 0.00894

Attribution: BigSolDB 2.1
